# MEASUREMENT PROTOCOL: protein stability index of a GFP-peptide fusion (yeast GPS) (PSI 1-4); higher = more stable; sorted into four equal gates, so the index is relative within each strain
# CONDITION PARAMETERS: ubr1∆
Please use t whenever protein stability index is not below 3, and f whenever it is.

1. ASPHASVRTAVFSALKN [ECM29] : f
2. FVEEQNVYVLPKNLLKK [PRP8] : f
3. HIEKLENEFVVLLDARD [CDC53] : t
4. YMLIEEAASSNKSFIVD [ITC1] : f
5. ESINNVVDQLWSEISNE [RPN2] : f
6. SKMSDESFAELMTKLNS [RPC17] : t
7. VDLLQFPWLNAIKYRPT [POP3] : f
8. LLGKESFKKIIKFLLTF [YCS4] : f
9. NKEMETQRIMTNVIAFA [YLR018C/POM34] : f
